target: MNV CW1 P-domain (MNV-1 P-dimer) (Murine norovirus 1, UniProt Q80J94); construct: MBP-His8 fusion from E. coli BL21(DE3), cleaved with HRV3C; MIL(proS)V(proS)A 13C-methyl labelled for NMR; assay: methyl TROSY NMR titration, TITAN global lineshape analysis
pKd: −log10 of the molar value.
propertyName: pKd

molecule	propertyName	assayResult
C[C@H](CCC(=O)NCC(=O)O)[C@H]1CC[C@H]2[C@@H]3[C@H](O)C[C@@H]4C[C@H](O)CC[C@]4(C)[C@H]3CC[C@]12C [GCDCA, glycochenodeoxycholic acid]	pKd	4.98
